assayedSystem: T1, human IL1RAP extracellular domain protein (GK002, HuIL1Racp-ECD-His6) (human, UniProt Q9NPH3 21-367)
T1 construct: also called His-tagged human IL-1RAP extracellular domain protein; HuIL1RAP-ECD-His6 (GK002)
T1 sequence: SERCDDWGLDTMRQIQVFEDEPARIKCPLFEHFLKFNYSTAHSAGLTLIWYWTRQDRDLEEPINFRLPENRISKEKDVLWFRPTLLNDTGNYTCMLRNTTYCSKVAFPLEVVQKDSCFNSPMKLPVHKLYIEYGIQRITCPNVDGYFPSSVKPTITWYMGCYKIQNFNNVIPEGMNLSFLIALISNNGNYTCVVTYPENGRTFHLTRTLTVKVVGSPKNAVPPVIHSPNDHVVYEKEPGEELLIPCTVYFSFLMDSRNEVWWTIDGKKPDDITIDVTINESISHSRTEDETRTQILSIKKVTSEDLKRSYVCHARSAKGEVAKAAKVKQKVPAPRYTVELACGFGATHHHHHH
testProtocol: SPR (Biacore T200), mAb captured by anti-Fc IgG, His-tagged human IL1RAP ECD as analyte
outcomeMeasure: pKd
Answers are plain numbers, as −log10 of the molar value.

Q. Tell me the measured pKd of mAb063 (antibody, V domains shown, Murine anti-human IL1RAP mAb; also called murine mAb063) VH: EVQLQQSGPELVKPGASVKISCKASGYTFTDYYMNWVKQSHGKSLEWIGHINPNSGSTTYTEKFKDKATLTVDKSSSTAYMELRSLTSDDSAVYYCVRRIGKNWHCDVWGTGTTVTVSS VL: DIVLTQSPASLAVSLGQRATISCRASESVNFHGTHLMHWYQQKPGQAPKLLIYAASNLDSGVPARFSGSGSETDFTLNIHPVEEEDAATYFCQQSIEDPFTFGSGTYLEIK , please.
A. 10.30
